System: Staphylococcus epidermidis
Experiment: Antibacterial activity against methicillin resistant Staphylococcus epidermidis clinical isolate 20-2 assessed as inhibition of bacterial growth incubated for 7 days by alamar blue assay
Format: functional
Conditions: clinical isolate 20-2, 168 h, time 7 day
Provide the recorded MIC for the entries that follow.
Respond with the bare value in µg/mL.

Which measured MIC value corresponds to CC(=O)NC[C@@H]1OC(=O)N2Cc3cc(-c4ccc(C#N)cc4)c(F)cc3O[C@@H]12 ?
0.06

Follow-up entry: COC(=O)NC[C@@H]1OC(=O)N2Cc3cc(-c4ccc(C#N)cc4)c(F)cc3O[C@@H]12
0.125

Follow-up entry: COC(=O)NC[C@@H]1OC(=O)N2Cc3cc(-c4ccc(-c5nnn(C)n5)nc4)c(F)cc3O[C@@H]12
0.125

Follow-up entry: CC(=O)NC[C@H]1CN(c2ccc(N3CCOCC3)c(F)c2)C(=O)O1
0.5

Follow-up entry: CC(=O)NC[C@@H]1OC(=O)N2Cc3c(cc(F)c(-c4ccc(-c5nnn(C)n5)nc4)c3F)O[C@@H]12
0.5

Follow-up entry: CC(=O)NC[C@@H]1OC(=O)N2Cc3c(cc(F)c(-c4ccc(C#N)nc4)c3F)O[C@@H]12
0.5

Follow-up entry: COC(=O)NC[C@@H]1OC(=O)N2Cc3cc(-c4ccc(C#N)nc4)c(F)cc3O[C@@H]12
0.25

* * *

Experiment: Drug concentration in BALB/c mouse plasma at 10 mg/kg,po administration measured within 15 mins by LC-MS/MS analysis
Type: ADME, organism-based
measurement name: concentration at 0.25 h (ng/mL)
Respond with the bare value in ng/mL.

Which measured concentration at 0.25 h value corresponds to CC(=O)NC[C@@H]1OC(=O)N2Cc3cc(-c4ccc(C#N)cc4)c(F)cc3O[C@@H]12 ?
1000

Follow-up entry: COC(=O)NC[C@@H]1OC(=O)N2Cc3cc(-c4ccc(C#N)cc4)c(F)cc3O[C@@H]12
1000

* * *

Tested on: Enterococcus faecalis
Assay: Antibacterial activity against Enterococcus faecalis ATCC29212 assessed as inhibition of bacterial growth incubated for 18 hrs by microdilution broth assay
Type: functional
Provide the recorded MIC for the entries that follow.
Respond with the bare value in µg/mL.

Which measured MIC value corresponds to CC(=O)NC[C@H]1OC(=O)N2Cc3cc(-c4ccc(-c5nnn(C)n5)nc4)c(F)cc3O[C@@H]12 ?
0.5

Follow-up entry: CC(=O)NC[C@@H]1OC(=O)N2Cc3cc(-c4ccc(C(F)(F)F)nc4)c(F)cc3O[C@@H]12
1

Follow-up entry: CC(=O)NC[C@@H]1OC(=O)N2Cc3cc(-c4ccnc(C#N)c4)c(F)cc3O[C@@H]12
1

Follow-up entry: CC(=O)NC[C@H]1OC(=O)N2Cc3cc(-c4ccc(C#N)nc4)c(F)cc3O[C@@H]12
0.5

Follow-up entry: CC(=O)NC[C@@H]1OC(=O)N2Cc3cc(-c4ccc(C#N)cc4)c(F)cc3O[C@@H]12
1

Follow-up entry: COc1cc(-c2cc3c(cc2F)O[C@H]2[C@H](CNC(C)=O)OC(=O)N2C3)ccn1
1

Follow-up entry: CC(=O)NC[C@@H]1OC(=O)N2Cc3c(cc(F)c(-c4ccc(C#N)cc4)c3F)O[C@@H]12
0.25

Follow-up entry: CC(=O)NC[C@@H]1OC(=O)N2Cc3cc(-c4ccc5c(c4)NC(=O)CO5)c(F)cc3O[C@@H]12
1

Follow-up entry: CC(=O)NC[C@H]1CN(c2ccc(N3CCOCC3)c(F)c2)C(=O)O1 [LINEZOLID]
0.5

Follow-up entry: COC(=O)NC[C@@H]1OC(=O)N2Cc3cc(-c4ccc(C(C)=O)cc4)c(F)cc3O[C@@H]12
0.5

Follow-up entry: COc1ccc(-c2c(F)cc3c(c2F)CN2C(=O)O[C@@H](CNC(C)=O)[C@@H]2O3)cn1
0.5

Follow-up entry: CC(=O)NC[C@@H]1OC(=O)N2Cc3c(cc(F)c(-c4ccc(C#N)nc4)c3F)O[C@@H]12
0.5

Follow-up entry: COC(=O)NC[C@@H]1OC(=O)N2Cc3cc(-c4ccc(-c5nnn(C)n5)nc4)c(F)cc3O[C@@H]12
0.5

Follow-up entry: CC(=O)NC[C@@H]1OC(=O)N2Cc3c(cc(F)c(-c4ccc(C(C)=O)cc4)c3F)O[C@@H]12
0.25
